TESTED TARGET: T1, recombinant human soluble gpNMB (recombinant human gpNMB-FLAG-His) (human, UniProt Q14956 23-498)
T1 sequence: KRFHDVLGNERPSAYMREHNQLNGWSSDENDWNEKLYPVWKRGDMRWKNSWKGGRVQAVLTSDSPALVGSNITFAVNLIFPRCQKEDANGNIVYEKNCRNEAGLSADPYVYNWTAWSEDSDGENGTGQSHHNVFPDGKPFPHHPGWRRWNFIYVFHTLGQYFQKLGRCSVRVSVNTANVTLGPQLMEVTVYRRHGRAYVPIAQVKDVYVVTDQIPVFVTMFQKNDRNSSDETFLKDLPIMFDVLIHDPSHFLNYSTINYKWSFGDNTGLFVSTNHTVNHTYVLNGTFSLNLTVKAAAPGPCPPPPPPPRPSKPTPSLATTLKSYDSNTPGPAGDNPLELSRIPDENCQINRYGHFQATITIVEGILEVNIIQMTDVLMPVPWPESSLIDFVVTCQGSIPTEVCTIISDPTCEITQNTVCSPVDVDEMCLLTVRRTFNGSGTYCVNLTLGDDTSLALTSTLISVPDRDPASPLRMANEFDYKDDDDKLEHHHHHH
EXPERIMENT NOTES: antigen ELISA, vs hGPN06-1_H1L1
QUANTITY MEASURED: Relative binding activity

BINDER	RESULT
hGPN06-1_H1L1 VL N52A (antibody, V domains shown) VH: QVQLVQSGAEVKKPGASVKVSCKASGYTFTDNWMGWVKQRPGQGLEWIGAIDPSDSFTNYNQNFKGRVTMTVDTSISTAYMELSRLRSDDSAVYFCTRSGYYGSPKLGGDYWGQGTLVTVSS VL: EIVLTQSPSSLSASVGDRVTITCSASSSISYMHWYQQKSGTAPKLLIYSTSALASGVPSRFSGSGSGTDFTFTISSLQPEDAATYYCHQWNSYPCTFGGGTKLEIK	0.74
hGPN06-1_H1L1 VL S27A (antibody, V domains shown) VH: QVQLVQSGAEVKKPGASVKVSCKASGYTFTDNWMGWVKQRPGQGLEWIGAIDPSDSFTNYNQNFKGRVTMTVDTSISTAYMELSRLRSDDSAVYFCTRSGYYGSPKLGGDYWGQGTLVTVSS VL: EIVLTQSPSSLSASVGDRVTITCSASASISYMHWYQQKSGTAPKLLIYSTSNLASGVPSRFSGSGSGTDFTFTISSLQPEDAATYYCHQWNSYPCTFGGGTKLEIK	0.99
hGPN06-1_H1L1 VL N91A (antibody, V domains shown) VH: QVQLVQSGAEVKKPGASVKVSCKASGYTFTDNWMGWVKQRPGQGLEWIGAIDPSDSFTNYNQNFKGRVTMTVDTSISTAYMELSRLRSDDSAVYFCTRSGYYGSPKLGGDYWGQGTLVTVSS VL: EIVLTQSPSSLSASVGDRVTITCSASSSISYMHWYQQKSGTAPKLLIYSTSNLASGVPSRFSGSGSGTDFTFTISSLQPEDAATYYCHQWASYPCTFGGGTKLEIK	0.58
hGPN06-1_H1L1 VL P94A (antibody, V domains shown) VH: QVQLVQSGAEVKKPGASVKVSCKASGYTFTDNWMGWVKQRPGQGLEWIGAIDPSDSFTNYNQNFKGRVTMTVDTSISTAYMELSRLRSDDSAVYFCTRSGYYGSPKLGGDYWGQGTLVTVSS VL: EIVLTQSPSSLSASVGDRVTITCSASSSISYMHWYQQKSGTAPKLLIYSTSNLASGVPSRFSGSGSGTDFTFTISSLQPEDAATYYCHQWNSYACTFGGGTKLEIK	0.05
